Listed here: items and their measured IC50.
Tested on: SW 480
Experiment: Growth inhibition test (MTT) for cytotoxic properties
Type: cell-based, human
Conditions: Table 1a, glycoconjugates of batracyline

Molecule	IC50, µM
COC1C(O)C(C)OC(Oc2ccc(NC(=S)Nc3ccc4c(c3)Cn3c-4nc4ccccc4c3=O)cc2)C1O (stereo not shown)	100
COC1C(O)C(C)OC(Oc2ccc(NC(=S)NCCCCC(NC(=S)Nc3ccc(OC4OC(C)C(O)C(OCC(=O)O)C4O)cc3)C(=O)NC(C)C(=O)Nc3ccc4nc5n(c(=O)c4c3)Cc3ccccc3-5)cc2)C1O (stereo not shown)	55
COC1C(C)OC(Oc2ccc(NC(=S)NCCCCC(NC(=S)Nc3ccc(OC4OC(C)C(OC)C(O)C4O)cc3)C(=O)NC(C)C(=O)Nc3ccc4nc5n(c(=O)c4c3)Cc3ccccc3-5)cc2)C(O)C1O (stereo not shown)	70
CO[C@H]1[C@@H](O)[C@H](O)[C@@H](Oc2ccc(NC(=S)NCCCC[C@H](N)C(=O)N[C@H](C)C(=O)Nc3ccc4c(c3)Cn3c-4nc4ccccc4c3=O)cc2)O[C@H]1C	85
